experimentalSystem: T1, human CCR8 (human, UniProt P51685 1-355)
T1 construct: Native CCR8 on human PBMC (CCR8+ CD3+ or CCR8+ CD4+ lymphocytes); also called chemokine (C-C motif) receptor 8
T1 sequence (P51685 whole entry): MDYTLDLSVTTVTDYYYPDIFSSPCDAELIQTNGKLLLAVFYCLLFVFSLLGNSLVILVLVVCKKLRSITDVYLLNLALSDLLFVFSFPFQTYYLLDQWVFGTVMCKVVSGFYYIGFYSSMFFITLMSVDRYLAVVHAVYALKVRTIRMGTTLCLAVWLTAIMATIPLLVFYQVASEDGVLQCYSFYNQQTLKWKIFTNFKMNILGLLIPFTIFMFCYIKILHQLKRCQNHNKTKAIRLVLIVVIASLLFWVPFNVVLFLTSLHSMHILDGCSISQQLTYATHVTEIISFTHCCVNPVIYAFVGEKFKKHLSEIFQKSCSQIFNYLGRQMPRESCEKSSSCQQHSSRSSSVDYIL
testDescription: flow blocking, PBMC CCR8+CD4+; competitor PE-AB3
measureName: % Positive cells (%)

AB2 (antibody, V domains shown, Hybridoma monoclonal; Same VH/VL entries as AB1; also called antibody 2; clone 2) VH: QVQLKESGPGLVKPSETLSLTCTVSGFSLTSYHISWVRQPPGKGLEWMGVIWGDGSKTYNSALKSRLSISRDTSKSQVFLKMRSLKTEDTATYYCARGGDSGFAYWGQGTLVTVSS VL: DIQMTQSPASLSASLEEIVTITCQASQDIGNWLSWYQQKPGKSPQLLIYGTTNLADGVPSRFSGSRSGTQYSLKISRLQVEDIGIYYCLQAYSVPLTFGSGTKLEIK | 0.03
